molecular target: Pim-2 (Homo sapiens (Human), UniProt Q9P1W9); assay: Pim-Mn enzyme assay (HTRF, 384-well), Pim-2; format: biochemical; details: Pim-2 enzyme 0.5 pM, ATP 1.5 μM, BAD (S112) 0.5 μM, HTRF, 22-point curve; read-out: Pim-2-Mn IC50 IP
Sequence (Q9P1W9 whole entry): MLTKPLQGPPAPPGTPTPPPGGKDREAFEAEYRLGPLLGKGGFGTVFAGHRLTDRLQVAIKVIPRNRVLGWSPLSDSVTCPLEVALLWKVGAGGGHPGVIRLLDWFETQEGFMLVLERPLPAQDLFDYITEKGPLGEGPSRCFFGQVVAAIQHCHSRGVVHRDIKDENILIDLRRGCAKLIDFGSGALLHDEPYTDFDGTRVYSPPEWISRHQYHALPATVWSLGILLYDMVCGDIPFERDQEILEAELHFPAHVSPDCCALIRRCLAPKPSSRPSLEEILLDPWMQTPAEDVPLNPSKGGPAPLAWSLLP
Result Type: IC50 (nM)

| Structure Smiles | Target Desc | Measurement Unit | Numeric Value |
| --- | --- | --- | --- |
| Cc1nc2cccc(-c3cc4c([nH]3)CCNC4=O)c2nc1CC(C)(C)C | Pim-2 (Homo sapiens (Human), UniProt Q9P1W9) | nM | 7.8 |

[a] Cc1nc2cccc(-c3cc4c([nH]3)CCNC4=O)c2nc1N[C@H]1C[C@H](NC(=O)OC(C)(C)C)C1
[b] Cc1nc2ccc(F)c(-c3cc4c([nH]3)[C@H]([C@H](C)O)NC4=O)c2nc1NC1CC1
// compare measured IC50, left a , right b , return larger Answer format: the label of the selected item.
b
(b: 16.4 nM, a: 8.2 nM)

The origin of these recorded values is patent US9394297B2.
